These data points were gathered from the supplement of paper PMC6555819.

System: PPARg:RXRa 270nM:90nM, anti-RXR (NR concentration 270 nM, RXRa partner concentration 90 nM)
test.method.notes: PBM binding z-score (relative to random genomic background probes); higher = stronger binding; sequences stand for … in GC…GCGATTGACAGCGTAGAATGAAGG
For each entry below, report its PBM binding z-score value.
Number only, no unit.

Request: Param item = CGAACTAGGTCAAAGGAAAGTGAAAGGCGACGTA ; retrieve measured PBM binding z-score.
Response: 7.07

Request: I'd like to know its PBM binding z-score. The sequence in question is CTACGTAGGTTAAGGGGGTCATTCAGTTTGAAAG
Response: 5.7

Request: // returns reported PBM binding z-score for input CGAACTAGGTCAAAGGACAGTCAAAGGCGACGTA
Response: 8.68

Request: # get_value(readout='PBM binding z-score', item= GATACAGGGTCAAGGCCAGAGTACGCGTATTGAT )
Response: 5.43

Request: Look at this sequence and give its reported PBM binding z-score. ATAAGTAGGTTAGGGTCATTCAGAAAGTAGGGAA
Response: 7.06

Request: PBM binding z-score lookup needed for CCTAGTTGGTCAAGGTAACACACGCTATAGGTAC , thanks.
Response: 1.32

Request: What value of PBM binding z-score has been recorded for this entry: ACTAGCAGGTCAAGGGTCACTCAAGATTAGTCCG
Response: 9.23

Request: Quick one: PBM binding z-score for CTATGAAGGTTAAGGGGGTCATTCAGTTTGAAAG ?
Response: 6.01

Request: Item under review: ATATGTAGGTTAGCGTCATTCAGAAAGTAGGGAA . Reported PBM binding z-score?
Response: 3.23

Request: Requested field: PBM binding z-score. Item: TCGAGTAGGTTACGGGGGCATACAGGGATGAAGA
Response: 5.69

Request: What does the record list as PBM binding z-score for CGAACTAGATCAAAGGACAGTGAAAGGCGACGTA ?
Response: 4.89

Request: Need PBM binding z-score, item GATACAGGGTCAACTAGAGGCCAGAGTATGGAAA
Response: 5.69

Request: May I ask what PBM binding z-score has been recorded for TCGAGTAGGTTACGGGGGCACTCAGGGATGAAGA ?
Response: 6.05

Request: Return reported PBM binding z-score; argument: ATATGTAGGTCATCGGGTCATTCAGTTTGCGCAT
Response: 8.12

Request: Quick check: PBM binding z-score of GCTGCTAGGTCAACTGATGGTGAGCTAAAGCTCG ?
Response: 3.02

Request: Please look up its PBM binding z-score: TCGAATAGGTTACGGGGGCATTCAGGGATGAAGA
Response: 5.84

Request: Which measured PBM binding z-score value corresponds to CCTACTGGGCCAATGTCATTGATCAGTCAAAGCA ?
Response: 0.774

Request: Which PBM binding z-score is listed for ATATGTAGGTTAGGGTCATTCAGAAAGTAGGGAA ?
Response: 6.68

Request: Record request: PBM binding z-score value, item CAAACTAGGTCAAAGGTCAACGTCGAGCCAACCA
Response: 11.3

Request: I am curious: what PBM binding z-score value has been reported for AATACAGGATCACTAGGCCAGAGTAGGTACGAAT ?
Response: 0.718

Request: # input sequence: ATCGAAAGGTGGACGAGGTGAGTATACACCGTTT ; wanted: its PBM binding z-score
Response: 0.439

Request: GET /values?readout=PBM binding z-score&item= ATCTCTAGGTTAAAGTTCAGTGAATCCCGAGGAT
Response: 8.62

Request: Report PBM binding z-score for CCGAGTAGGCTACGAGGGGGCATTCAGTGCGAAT please.
Response: 1.1

Request: Give its PBM binding z-score value. Item: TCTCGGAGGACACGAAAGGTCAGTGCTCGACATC
Response: 2.29

Request: Which PBM binding z-score is listed for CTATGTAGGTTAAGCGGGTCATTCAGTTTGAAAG ?
Response: 5.57

Request: Consider the sequence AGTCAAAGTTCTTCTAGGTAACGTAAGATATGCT and give its measured PBM binding z-score.
Response: 1.16

Request: Which value of PBM binding z-score has been reported for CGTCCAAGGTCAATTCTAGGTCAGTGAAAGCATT in the records?
Response: 4.59

Request: Bench note: what PBM binding z-score did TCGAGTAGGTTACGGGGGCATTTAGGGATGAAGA show?
Response: 5.65

Request: Endpoint output: PBM binding z-score of CTCGAAAGGTCGTGCTCAGGTGAGTACACCAAAC . Value?
Response: 4.4

Request: Which value of PBM binding z-score has been reported for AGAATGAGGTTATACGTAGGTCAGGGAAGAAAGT in the records?
Response: 2.74

Request: Need PBM binding z-score, item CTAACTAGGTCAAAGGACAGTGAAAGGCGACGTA
Response: 9.18

Request: # lookup: PBM binding z-score of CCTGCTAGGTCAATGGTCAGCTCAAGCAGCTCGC
Response: 5.03

Request: Can you share its PBM binding z-score? I mean this sequence: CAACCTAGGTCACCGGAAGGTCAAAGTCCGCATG
Response: 6.31

Request: # PBM binding z-score lookup, item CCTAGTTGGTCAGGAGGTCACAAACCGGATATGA
Response: 3.7

Request: Can you share its PBM binding z-score? I mean this sequence: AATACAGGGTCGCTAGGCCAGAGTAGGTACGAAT
Response: 0.765

Request: Quick check: PBM binding z-score of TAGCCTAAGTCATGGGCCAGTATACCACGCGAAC ?
Response: 0.385

Request: Looking for the measured PBM binding z-score of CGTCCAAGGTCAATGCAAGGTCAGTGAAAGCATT , can you help?
Response: 5.14

Request: Please report the recorded PBM binding z-score for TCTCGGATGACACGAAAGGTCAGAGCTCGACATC .
Response: 2.75

Request: So what's the measured PBM binding z-score for this one? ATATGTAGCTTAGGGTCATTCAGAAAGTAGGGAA
Response: 3.28

Request: What does the data say about its PBM binding z-score? Entry: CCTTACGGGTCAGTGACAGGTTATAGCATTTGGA
Response: 2.4

Request: Tell me the measured PBM binding z-score of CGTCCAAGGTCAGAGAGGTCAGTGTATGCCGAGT , please.
Response: 3.98

Request: Consider the sequence TGTCAAAGCTCAAAGGTAACGTAAGTATCCACAC and give its measured PBM binding z-score.
Response: 1.81

Request: Please report the recorded PBM binding z-score for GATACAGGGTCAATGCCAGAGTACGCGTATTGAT .
Response: 4.33

Request: Tell me the measured PBM binding z-score of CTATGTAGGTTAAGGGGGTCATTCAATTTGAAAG , please.
Response: 7.74

Request: Quick one: PBM binding z-score for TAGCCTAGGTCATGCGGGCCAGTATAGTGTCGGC ?
Response: 2.32

Request: State the recorded PBM binding z-score for this entry: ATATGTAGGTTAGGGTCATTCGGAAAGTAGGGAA
Response: 6.42

Request: Request the reported PBM binding z-score associated with ATCGAAAGGTCGTGAGGTGACTATACAGAAAGGC
Response: 4.64

Request: GET /values?readout=PBM binding z-score&item= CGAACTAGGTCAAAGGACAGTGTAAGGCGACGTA
Response: 8.19

Request: Which PBM binding z-score reading was recorded for the sequence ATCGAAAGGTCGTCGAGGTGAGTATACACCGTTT ?
Response: 3.97

Request: Requested read-out: PBM binding z-score. Entry: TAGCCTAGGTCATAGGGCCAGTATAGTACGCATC
Response: 3.46

Request: Consider the sequence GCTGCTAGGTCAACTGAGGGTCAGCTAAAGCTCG and give its measured PBM binding z-score.
Response: 4.15

###

Tested on: THRa homodimer (NR concentration 90 nM)
test.method.notes: PBM binding z-score (relative to random genomic background probes); higher = stronger binding; sequences stand for … in GC…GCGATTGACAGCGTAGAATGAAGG
Label scheme for PBM binding z-score: lower than 3 is Criterion not met, 3 and above is Criterion met.

Request: Check the entry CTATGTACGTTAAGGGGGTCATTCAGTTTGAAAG : does PBM binding z-score equal or exceed 3?
Response: Criterion not met

Request: # bool: PBM binding z-score of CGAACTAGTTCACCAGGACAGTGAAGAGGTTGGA >= 3
Response: Criterion not met

Request: Textbook exercise: given the entry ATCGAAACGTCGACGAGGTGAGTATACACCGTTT , state whether its PBM binding z-score is greater than or equal to 3.
Response: Criterion not met

Request: Quick check, PBM binding z-score >= 3? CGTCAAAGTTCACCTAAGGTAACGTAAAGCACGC
Response: Criterion met

Request: State whether the measured PBM binding z-score reaches 3, counting equality as reaching it, for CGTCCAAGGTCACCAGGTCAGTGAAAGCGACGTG
Response: Criterion met

Request: Reported PBM binding z-score reaches at least 3 for CAAACTAGGTCACCGGAAGGTCATAGTCCGCATG ?
Response: Criterion met

Request: Could you verify whether the entry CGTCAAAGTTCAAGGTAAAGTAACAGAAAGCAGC shows PBM binding z-score of no less than 3?
Response: Criterion not met

Request: Please indicate if the recorded PBM binding z-score for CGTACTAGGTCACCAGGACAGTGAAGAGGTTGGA meets or exceeds 3.
Response: Criterion not met

Request: I'd appreciate it if you could say whether CTATTTAGGTTAAGGGGGTCATTCAGTTTGAAAG has PBM binding z-score at least equal to 3.
Response: Criterion not met

Request: Hi, just wondering whether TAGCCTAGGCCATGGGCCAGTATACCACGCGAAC shows PBM binding z-score of 3 or higher.
Response: Criterion not met

Request: Check this sequence for PBM binding z-score at or above 3: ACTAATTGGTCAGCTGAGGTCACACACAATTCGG
Response: Criterion met

Request: Hello, I need to know if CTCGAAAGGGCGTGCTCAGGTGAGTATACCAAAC has measured PBM binding z-score not below 3. Thanks!
Response: Criterion not met
